# Target Desc: Protein (Hepatitis B virus genotype D subtype ayw, UniProt P03146)
# Sequence (P03146 whole entry): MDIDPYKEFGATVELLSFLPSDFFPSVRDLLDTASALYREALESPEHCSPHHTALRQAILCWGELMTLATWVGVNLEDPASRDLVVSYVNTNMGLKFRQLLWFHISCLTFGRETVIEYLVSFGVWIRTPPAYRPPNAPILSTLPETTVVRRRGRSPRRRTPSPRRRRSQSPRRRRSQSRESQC
# Procedure Details: Protein inhibition rate / EC50 (Table 1, no method described)
# Assay type: biochemical
Would you mind labelling by inhibition at 30 µM? At or over 90% is MET, under is NOT MET.

[[record]]
molecule = "COc1ccc(N(Cc2n[nH]c3c2CS(=O)(=O)CC3)C(=O)Nc2ccc(F)c(Cl)c2)cn1"
classification = "NOT MET"

[[record]]
molecule = "COc1ccc(N(Cc2n[nH]c3c2CC(C(F)(F)F)CC3)C(=O)Nc2ccc(F)c(Cl)c2)cn1 (centres unmarked)"
classification = "MET"

[[record]]
molecule = "O=C(Nc1ccc(F)c(Cl)c1)N(Cc1n[nH]c2c1CCCC2)c1ccc(=O)[nH]c1"
classification = "NOT MET"

[[record]]
molecule = "COc1ccc(N(Cc2n[nH]c3c2CSCC3)C(=O)Nc2ccc(F)c(Cl)c2)cn1"
classification = "MET"

[[record]]
molecule = "COc1ccc(N(Cc2cc(C(C)C)[nH]n2)C(=O)Nc2ccc(F)c(Cl)c2)cn1"
classification = "MET"

[[record]]
molecule = "COc1ccc(N(Cc2n[nH]c3c2CCCC3)C(=O)Nc2ccc(F)c(Cl)c2)cc1OC"
classification = "NOT MET"

[[record]]
molecule = "COc1ccc(N(Cc2cn(C)nc2C)C(=O)Nc2ccc(F)c(Cl)c2)cc1"
classification = "NOT MET"

[[record]]
molecule = "COc1ccc(N(Cc2n[nH]c3c2CN(C)CC3)C(=O)Nc2ccc(F)c(Cl)c2)cc1"
classification = "NOT MET"

[[record]]
molecule = "O=C(O)c1ccc(N(Cc2n[nH]c3c2CCCC3)C(=O)Nc2ccc(F)c(Cl)c2)cc1"
classification = "MET"

[[record]]
molecule = "COc1ccc(N(Cc2n[nH]c3c2CCC3)C(=O)Nc2ccc(F)c(Cl)c2)cc1"
classification = "MET"

[[record]]
molecule = "O=C(Nc1ccc(F)c(Cl)c1)N(Cc1n[nH]c2c1CCCC2)c1ccon1"
classification = "NOT MET"

[[record]]
molecule = "COc1ccc(N(Cc2n[nH]c3c2CC(C)(C)CC3)C(=O)Nc2ccc(F)c(Cl)c2)cn1"
classification = "MET"

[[record]]
molecule = "COc1cc(N(Cc2n[nH]c3c2CCCC3)C(=O)Nc2ccc(F)c(Cl)c2)ccn1"
classification = "NOT MET"


----------
# Procedure Details: Cell viability assay (EZ-Cytox), cytotoxicity
# Assay type: cell-based
# Details: human, HepAD38 cells
Measurement Label: CC50 at 65 h

[[record]]
compound = "CC(C)(O)c1cc(N(Cc2n[nH]c3c2CCCO3)C(=O)Nc2ccc(F)c(Cl)c2)ccn1 [Example 113]"
measured_result = "> 100 µM"

[[record]]
compound = "O=C(Nc1ccc(F)c(Cl)c1)N(Cc1n[nH]c2c1CCCO2)c1cc[nH]n1 [Example 135]"
measured_result = "> 100 µM"

[[record]]
compound = "COC12CC(N(Cc3cc(C(F)(F)F)[nH]n3)C(=O)Nc3cc(F)c(F)c(F)c3)(C1)C2 [Example 222]"
measured_result = "31.7 µM"

[[record]]
compound = "COc1ccc(N(Cc2n[nH]c3c2CCCO3)C(=O)Nc2ccc(F)c(Cl)c2)cn1 [Example 63]"
measured_result = "> 100 µM"

[[record]]
compound = "O=C(Nc1ccc(F)c(Cl)c1)N(Cc1n[nH]c2c1CCCO2)c1ccon1 [Example 136]"
measured_result = "64 µM"

[[record]]
compound = "COc1cc(N(Cc2cc(C(F)(F)F)[nH]n2)C(=O)Nc2ccc(F)c(Cl)c2)cnn1 [Example 94]"
measured_result = "64.4 µM"

[[record]]
compound = "COc1ncc(N(Cc2n[nH]c(C(F)(F)F)c2CC(C)O)C(=O)Nc2ccc(F)c(C(F)F)c2)cn1 (stereo not shown) [Example 199]"
measured_result = "> 100 µM"

[[record]]
compound = "COc1ccc(N(Cc2n[nH]c3c2CC(C(F)(F)F)CC3)C(=O)Nc2ccc(F)c(Cl)c2)cn1 (stereo not shown) [Example 62]"
measured_result = "86.7 µM"

[[record]]
compound = "COc1ncc(N(Cc2cc(C(F)(F)F)[nH]n2)C(=O)Nc2ccc(F)c(C(F)F)c2)cn1 [Example 189]"
measured_result = "> 100 µM"

[[record]]
compound = "COc1ccc(N(Cc2cc(C(F)(F)F)[nH]n2)C(=O)Nc2ccc(F)c(C(F)F)c2)cn1 [Example 188]"
measured_result = "> 100 µM"

[[record]]
compound = "COc1ccc(N(Cc2n[nH]c3c2CCC3)C(=O)Nc2ccc(F)c(Cl)c2)cc1 [Example 46]"
measured_result = "> 100 µM"

[[record]]
compound = "COc1ncc(N(Cc2n[nH]c(C(F)F)c2C(C)(C)O)C(=O)Nc2ccc(F)c(C(F)F)c2)cn1 [Example 198]"
measured_result = "> 100 µM"

[[record]]
compound = "COc1ncc(N(Cc2cc(C(F)(F)F)[nH]n2)C(=O)Nc2ccc(F)c(Cl)c2)cc1C#N [Example 119]"
measured_result = "< 50 µM"

[[record]]
compound = "COc1ncc(N(Cc2cc(C(F)(F)F)[nH]n2)C(=O)Nc2ccc(F)c(Cl)c2)cn1 [Example 80]"
measured_result = "88.4 µM"

[[record]]
compound = "COc1cncc(N(Cc2n[nH]c3c2COCC3)C(=O)Nc2ccc(F)c(Cl)c2)c1 [Example 75]"
measured_result = "> 100 µM"

[[record]]
compound = "COc1ccc(N(Cc2n[nH]c(C(F)(F)F)c2C)C(=O)Nc2ccc(F)c(Cl)c2)cn1 [Example 78]"
measured_result = "> 100 µM"


----------
Below, each entry is listed with its recorded IC50.
# Test system: intracellular HBV DNA
# Procedure Details: Real-time PCR for intracellular HBV DNA in HepAD38 cells
# Type: cell-based
# Details: Hepatitis B virus, HePAD38, 65 h, 65 hours treatment
Measurement Label: IC50 (nM)

[[record]]
structure_as_smiles = "O=C(O)c1ccc(N(Cc2n[nH]c3c2CCCC3)C(=O)Nc2ccc(F)c(Cl)c2)cc1"
measurement_label = "IC50"
unit_abbrev = "nM"
inequality_operator = ">"
measured_result = 1100

[[record]]
structure_as_smiles = "CC(=O)c1ccc(N(Cc2n[nH]c3c2CCCO3)C(=O)Nc2ccc(F)c(Cl)c2)cn1"
measurement_label = "IC50"
unit_abbrev = "nM"
inequality_operator = ">"
measured_result = 1100

[[record]]
structure_as_smiles = "COc1ncc(N(Cc2n[nH]c(C(F)(F)F)c2Br)C(=O)Nc2ccc(F)c(C(F)F)c2)cn1"
measurement_label = "IC50"
unit_abbrev = "nM"
inequality_operator = "="
measured_result = 21

[[record]]
structure_as_smiles = "COc1ncc(N(Cc2cc(C(F)(F)F)[nH]n2)C(=O)Nc2ccc(F)c(C#N)n2)cn1"
measurement_label = "IC50"
unit_abbrev = "nM"
inequality_operator = "="
measured_result = 430

[[record]]
structure_as_smiles = "COc1ncc(N(Cc2cc(C(F)F)[nH]n2)C(=O)Nc2cccc(C#N)c2)cn1"
measurement_label = "IC50"
unit_abbrev = "nM"
inequality_operator = "="
measured_result = 80


----------
# Procedure Details: Cell viability assay (EZ-Cytox), cytotoxicity
# Type: cell-based
# Details: human, HepAD38 cells, @100 μM, read-out: Cytotoxicity % Livability (@100 μM)
# Description: HepAD38 cells were cultured for 2 days in Dulbecco's Modified Eagle's medium (Welgene, LM001-05) supplemented with 10% FBS without tetracycline. […] After 65 hours of treatment, viability was measured using EZ-Cytox cell viability assay kit (Daeil Lab Service) according to the manufacturer's instructions. The absorbance was measured at 450 nm using a spectrophotometer (Spark, Tecan).
Measurement Label: viability at 65 h, 100 µM (%)

[[record]]
compound = "COc1ccc(N(Cc2ccn(C)n2)C(=O)Nc2ccc(F)c(Cl)c2)cc1 [Example 35]"
unit_abbrev = "%"
measured_result = 90.5

[[record]]
compound = "COc1ncc(N(Cc2cc(C#N)[nH]n2)C(=O)Nc2cccc(C(F)F)c2)cn1 [Example 180]"
unit_abbrev = "%"
measured_result = 88.1

[[record]]
compound = "COc1ncc(N(Cc2cc(C(F)(F)F)[nH]n2)C(=O)Nc2ccc(C#N)c(F)c2)cn1 [Example 156]"
unit_abbrev = "%"
measured_result = 107

[[record]]
compound = "COCc1c(CN(C(=O)Nc2ccc(F)c(Cl)c2)c2ccc(OC)nc2)n[nH]c1C(F)F [Example 82]"
unit_abbrev = "%"
measured_result = 85.8

[[record]]
compound = "COc1ccc(N(Cc2n[nH]c3c2CSCC3)C(=O)Nc2ccc(F)c(Cl)c2)cn1 [Example 45]"
unit_abbrev = "%"
measured_result = 3.3

[[record]]
compound = "COc1cc(N(Cc2cc(C(F)(F)F)[nH]n2)C(=O)Nc2ccc(F)c(Cl)c2)cnn1 [Example 94]"
unit_abbrev = "%"
measured_result = 4.8

[[record]]
compound = "COc1ncc(N(Cc2n[nH]c(C(F)F)c2Br)C(=O)Nc2ccc(F)c(C(F)F)c2)cn1 [Example 197]"
unit_abbrev = "%"
measured_result = 11.5

[[record]]
compound = "COc1ccc(N(Cc2n[nH]c(C)c2C)C(=O)Nc2ccc(F)c(Cl)c2)cn1 [Example 57]"
unit_abbrev = "%"
measured_result = 93.2

[[record]]
compound = "COc1ccc(N(Cc2n[nH]c3c2CCC3)C(=O)Nc2ccc(F)c(Cl)c2)cn1 [Example 41]"
unit_abbrev = "%"
measured_result = 97.8

[[record]]
compound = "O=C(Nc1ccc(F)c(Cl)c1)N(Cc1n[nH]c2c1CCC2)c1ccon1 [Example 134]"
unit_abbrev = "%"
measured_result = 6.5

